# methodSummary: rescue of yeast from PfHsp40 toxicity, primary screen, S. cerevisiae, ATP luminescence (AID 504582);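 also: yeast W303a lacking pdr1 and pdr3 grown in galactose medium; growth measured after three days at 30 °C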
# studyConditions: S. cerevisiae expressing PfHsp40, growth rescue, at 12.5 µM
About 2,300 (0.68%) of roughly 340,000 compounds were called active. Rule as the data show it: active = growth rescue above about 28% (passing the limit was not always enough); inconclusive = no clear call, values can overlap the other calls. Shown is part of a subset that was picked to be rich in actives.
Reply using exactly one outcome from y (active), n (inactive)

compound: CC(=O)Oc1ccc(C)cc1N1C(=O)c2ccc(C(=O)O)cc2C1=O
assignedCategory: y
//
compound: O=[N+]([O-])c1ccc(N2CCN(S(=O)(=O)c3ccccc3)CC2)cc1N1CCc2ccccc2C1
assignedCategory: n
//
compound: Cn1c(=O)n(C)c2cc(CNc3ccc(N4CCOCC4)c(C(=O)O)c3)ccc21
assignedCategory: n
//
compound: COc1ccc(OC)c(NC(=O)c2ccc3c(c2)C(=O)N(c2ccc(OC(C)=O)cc2)C3=O)c1
assignedCategory: n

Data request: # fetch the recorded call for Cn1c(CC2Sc3ccccc3NC2=O)nnc1SCC(=O)c1ccc(Cl)cc1 (stereo not given) here
Data returned: n

Data request: # fetch the recorded call for COc1cc(/C=N/O)cc(Br)c1OCc1cccc(Cl)c1 here
Data returned: y

Data request: # fetch the recorded call for Cc1c(NS(=O)(=O)c2cc(C(=O)NCCc3ccc(F)cc3)cc(Cl)c2Cl)c(=O)n(-c2ccccc2)n1C here
Data returned: n

Data request: # fetch the recorded call for COc1cc(/C=N/O)cc(Br)c1OS(=O)(=O)c1ccc(C)cc1 here
Data returned: n

Data request: # fetch the recorded call for O=C(CSc1ccccn1)N1CCN(S(=O)(=O)c2ccc(Cl)cc2)CC1 here
Data returned: n

Data request: # fetch the recorded call for Cc1cccc(N2C(=O)c3ccc(C(=O)Nc4cccc(C(=O)O)c4)cc3C2=O)c1 here
Data returned: n

* * *

# methodSummary: rescue of yeast from PfHsp40 toxicity, primary screen, S. cerevisiae, ATP luminescence (AID 504582);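 also: yeast W303a lacking pdr1 and pdr3 grown in galactose medium; growth measured after three days at 30 °C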
# studyConditions: S. cerevisiae expressing PfHsp40, growth rescue, at 12.5 µM
The campaign covered roughly 340,000 compounds. About 2,300 (0.68%) were called active. Cut-off read from the data, not from the text of the source: active = growth rescue above about 28% (passing the limit was not always enough); inconclusive = no clear call, values can overlap the other calls. What follows is part of a selection rich in actives, with near analogues and random picks from the rest.
Reply using exactly one outcome from active, inactive

These recorded examples may help you get a feel for the data.
compound: COc1ccc2c(c1)CCc1c(C(=O)N3CCCC3)noc1-2
assignedCategory: inactive

compound: CCCCC(C(=O)NC(C)(C)C)N(Cc1ccccc1)C(=O)c1snc(C(N)=O)c1N (centres undefined)
assignedCategory: active

Data request: # fetch the recorded call for Cc1ccc(S(=O)(=O)N2CCOCC2)cc1NC(=O)COC(=O)c1cnccn1 here
Data returned: inactive

Data request: # fetch the recorded call for O=C(NNC(=O)c1cc(S(=O)(=O)N2CCCCC2)ccc1Cl)c1ccccc1O here
Data returned: active

Data request: # fetch the recorded call for COc1ccc(-c2cc(C(=O)NCCCN3CCOCC3)no2)cc1 here
Data returned: inactive

Data request: # fetch the recorded call for COc1cccc(CNC(=O)C2CCCN(S(=O)(=O)N3CC(C)CC(C)C3)C2)c1 (centres undefined) here
Data returned: inactive

Data request: # fetch the recorded call for COc1ccc(NC(=O)N2CCCC(c3nc(-c4ccc(F)cc4)no3)C2)cc1 (centres undefined) here
Data returned: inactive

* * *

growth rescue for assorted compounds
# methodSummary: rescue of yeast from PfHsp40 toxicity, primary screen, S. cerevisiae, ATP luminescence (AID 504582);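 also: yeast W303a lacking pdr1 and pdr3 grown in galactose medium; growth measured after three days at 30 °C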
# studyConditions: S. cerevisiae expressing PfHsp40, growth rescue, at 12.5 µM, stronger effect = higher value
Hit rate of the full screen: of about 340,000 compounds, about 2,300 (0.68%) were called active. Shown is part of a subset that was picked to be rich in actives.
Expressed in %, but write only the number.

compound: O=c1ccc2cc(S(=O)(=O)NCCCc3ccccc3)ccc2[nH]1
growth rescue, %: 30.5

compound: Cc1csc(NC(=S)Nc2cccc(Cl)c2)n1
growth rescue, %: 118

Data request: Specify reported growth rescue for the compound shown: COc1ccc(NC(=O)C/C(C)=N/NC(=O)c2cnccn2)cc1Cl
Data returned: -1.24

Data request: Specify reported growth rescue for the compound shown: O=S(=O)(NCCc1ccccc1)c1ccccc1
Data returned: -1.03

Data request: Specify reported growth rescue for the compound shown: Cc1ccsc1-c1nc(CSCC(=O)NCCN2CCCC2)c(C)o1
Data returned: 35.6

Source: PubChem BioAssay AID504582
